Target: recombinant hMAO-A (Homo sapiens (Human), UniProt P21397)
Sequence (P21397 whole entry): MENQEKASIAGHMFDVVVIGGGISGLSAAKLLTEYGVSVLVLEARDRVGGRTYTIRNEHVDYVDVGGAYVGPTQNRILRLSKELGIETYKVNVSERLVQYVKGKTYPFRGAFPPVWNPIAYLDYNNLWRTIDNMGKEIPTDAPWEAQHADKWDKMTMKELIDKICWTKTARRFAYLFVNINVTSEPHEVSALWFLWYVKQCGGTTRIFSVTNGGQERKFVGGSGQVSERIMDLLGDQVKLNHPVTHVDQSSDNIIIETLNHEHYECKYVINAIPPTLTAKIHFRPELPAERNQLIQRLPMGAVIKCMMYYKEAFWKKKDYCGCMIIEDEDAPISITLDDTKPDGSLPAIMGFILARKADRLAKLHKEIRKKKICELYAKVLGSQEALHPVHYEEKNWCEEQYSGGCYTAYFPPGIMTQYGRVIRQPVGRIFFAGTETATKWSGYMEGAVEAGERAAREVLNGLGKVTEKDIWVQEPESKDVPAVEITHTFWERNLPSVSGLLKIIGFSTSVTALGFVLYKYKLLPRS
Assay: MAO-A activity assay (MAO-Glo assay kit)
Conditions: 40 μM substrate, 30 mins pre-incubation
pIC50: −log10 of the molar value.
Measured metric: pIC50

// worked examples, pIC50 included
[[record]]
compound = "CC1(CS(=O)(=O)c2ccc(OC/C(=C/F)CN)cc2)CCN(C(=O)C2(C)CC2)CC1"
target_entity = "recombinant hMAO-A (Homo sapiens (Human), UniProt P21397)"
measured_metric = "pIC50"
endpoint_value = "4.52 to 5.00"

[[record]]
compound = "NC/C(=C\\F)COc1ccc(S(=O)(=O)CC2(CN3CCOCC3)CC2)cc1"
target_entity = "recombinant hMAO-A (Homo sapiens (Human), UniProt P21397)"
measured_metric = "pIC50"
endpoint_value = "< 4.52"

[[record]]
compound = "NC/C(=C\\F)COc1ccc(S(=O)(=O)CC2CCN(C(=O)C3CC3)CC2)cc1"
target_entity = "recombinant hMAO-A (Homo sapiens (Human), UniProt P21397)"
measured_metric = "pIC50"
endpoint_value = "< 4.52"

[[record]]
compound = "CC(C)(C)NC(=O)C12CCC(CS(=O)(=O)c3ccc(OC/C(=C\\F)CN)cc3)(CC1)CC2"
target_entity = "recombinant hMAO-A (Homo sapiens (Human), UniProt P21397)"
measured_metric = "pIC50"
endpoint_value = "< 4.52"

[[record]]
compound = "NC/C(=C\\F)COc1ccc(S(=O)(=O)CC2CCN(C(=O)CC(F)(F)F)CC2)c(F)c1"
target_entity = "recombinant hMAO-A (Homo sapiens (Human), UniProt P21397)"
measured_metric = "pIC50"
endpoint_value = "< 4.52"

[[record]]
compound = "NC/C(=C\\F)COc1ccc(S(=O)(=O)CC23CCC(NC(=O)C4CCC4)(CC2)CC3)cc1"
target_entity = "recombinant hMAO-A (Homo sapiens (Human), UniProt P21397)"
measured_metric = "pIC50"
endpoint_value = "< 4.52"

[[record]]
compound = "N#CC1(CS(=O)(=O)c2ccc(OC/C(=C/F)CN)cc2)CCOCC1"
target_entity = "recombinant hMAO-A (Homo sapiens (Human), UniProt P21397)"
measured_metric = "pIC50"
endpoint_value = "4.52 to 5.00"

[[record]]
compound = "CC(C)C(=O)NC12CCC(CS(=O)(=O)c3ccc(OC/C(=C/F)CN)cc3)(CC1)CC2"
target_entity = "recombinant hMAO-A (Homo sapiens (Human), UniProt P21397)"
measured_metric = "pIC50"
endpoint_value = "< 4.52"

[[record]]
compound = "CCN(CC)C(=O)C12CCC(CS(=O)(=O)c3ccc(OC/C(=C/F)CN)cc3)(CC1)CC2"
target_entity = "recombinant hMAO-A (Homo sapiens (Human), UniProt P21397)"
measured_metric = "pIC50"
endpoint_value = "< 4.52"

[[record]]
compound = "CC(C)NC(=O)C1CCC(CS(=O)(=O)c2ccc(OC/C(=C/F)CN)cc2)CC1 (stereo not shown)"
target_entity = "recombinant hMAO-A (Homo sapiens (Human), UniProt P21397)"
measured_metric = "pIC50"
endpoint_value = "< 4.52"


// for each compound in input: emit pIC50
1. NC/C(=C\F)COc1ccc(S(=O)(=O)CC2CCN(C(=O)C34CC(F)(C3)C4)CC2)cc1
2. CC1(C(=O)N2CCN(CS(=O)(=O)c3ccc(OC/C(=C/F)CN)cc3)C(=O)C2)CCC1
3. CC1(C)CC(=O)N(CS(=O)(=O)c2ccc(OC/C(=C/F)CN)cc2)C1
4. NC/C(=C\F)COc1ccc(S(=O)(=O)CC2CCN(C(=O)C34CC5CC(CC(C5)C3)C4)CC2)cc1
5. NC/C(=C\F)COc1ccc(S(=O)(=O)CC23CCC(C(=O)NC4CC4)(CC2)CC3)cc1
6. CS(=O)(=O)N1CCC(CS(=O)(=O)c2ccc(OC/C(=C/F)CN)cc2)CC1

Ans.
["4.52 to 5.00", "4.52 to 5.00", "< 4.52", "4.52 to 5.00", "< 4.52", "> 5.00"]

----------
Assay: Brain Kpuu assay (BBB assay and protein binding assay)
Assay type: in vivo
Conditions: mouse; ICR mice, 1 mg/kg IV, plasma and brain collected at 5 minutes after dosing; read-out: Kpuu (mouse, t = 5 min)
Please provide measured Kp uu at 5 min for the entries that follow.
One number for each entry.

Example entries begin here.
[[record]]
input_smiles = "CC1(C(=O)NC23CCC(CS(=O)(=O)c4ccc(OC/C(=C/F)CN)cc4)(CC2)CC3)CC1"
measured_metric = "Kp uu at 5 min"
endpoint_value = 0.077

[[record]]
input_smiles = "CN(C)C(=O)C12CCC(CS(=O)(=O)c3ccc(OC/C(=C/F)CN)cc3)(CC1)CC2"
measured_metric = "Kp uu at 5 min"
endpoint_value = 0.034

[[record]]
input_smiles = "NC/C(=C\\F)COc1ccc(S(=O)(=O)CC2CCN(C(=O)C3CC3)CC2)cc1"
measured_metric = "Kp uu at 5 min"
endpoint_value = 0.025

[[record]]
input_smiles = "NC/C(=C\\F)COc1ccc(S(=O)(=O)CC23CCC(C(=O)NCC(F)(F)F)(CC2)CC3)cc1"
measured_metric = "Kp uu at 5 min"
endpoint_value = 0.018


Qu. Bench note: what Kp uu at 5 min did `CC(C)(C)NC(=O)C12CCC(CS(=O)(=O)c3ccc(OC/C(=C/F)CN)cc3)(CC1)CC2` show?
Ans. 0.01

----------
Can you tell me pIC50 for the items I'm about to list?
Target: recombinant hSSAO (Homo sapiens (Human))
Sequence (Q16853 whole entry): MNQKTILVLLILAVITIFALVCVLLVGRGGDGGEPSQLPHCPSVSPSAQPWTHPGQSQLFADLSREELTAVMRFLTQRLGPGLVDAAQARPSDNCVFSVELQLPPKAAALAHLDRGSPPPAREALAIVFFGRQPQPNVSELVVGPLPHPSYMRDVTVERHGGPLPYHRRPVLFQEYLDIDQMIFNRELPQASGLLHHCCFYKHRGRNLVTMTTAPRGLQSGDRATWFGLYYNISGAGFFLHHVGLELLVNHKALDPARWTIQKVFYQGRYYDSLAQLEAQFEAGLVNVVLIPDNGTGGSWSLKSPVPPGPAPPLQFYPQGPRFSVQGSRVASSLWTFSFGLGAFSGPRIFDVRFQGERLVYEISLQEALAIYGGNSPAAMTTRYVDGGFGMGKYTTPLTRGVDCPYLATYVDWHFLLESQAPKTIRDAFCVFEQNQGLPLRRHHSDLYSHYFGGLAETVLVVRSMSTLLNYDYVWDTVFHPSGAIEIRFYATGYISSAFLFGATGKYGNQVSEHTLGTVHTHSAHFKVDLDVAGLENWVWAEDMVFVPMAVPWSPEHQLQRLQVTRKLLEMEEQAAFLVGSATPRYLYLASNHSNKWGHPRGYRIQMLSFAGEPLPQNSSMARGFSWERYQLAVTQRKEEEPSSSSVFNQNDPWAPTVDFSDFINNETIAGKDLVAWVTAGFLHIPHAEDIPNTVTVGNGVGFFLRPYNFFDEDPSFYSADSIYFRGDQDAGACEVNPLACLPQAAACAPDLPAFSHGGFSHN
Experiment: SSAO Activity Assay (MAO-Glo assay kit)
Conditions: 40 μM substrate, 30 mins pre-incubation
pIC50: −log10 of the molar value.

Use the examples below as a reference point.
[[record]]
compound = "CC(C)(C)C(=O)NC12CC(CS(=O)(=O)c3ccc(OC/C(=C/F)CN)cc3)(C1)C2 [Compound 77]"
measured_metric = "pIC50"
endpoint_value = "> 7.70"

[[record]]
compound = "NC/C(=C\\F)COc1ccc(S(=O)(=O)CC23CCC(C(=O)NC4CC(F)(F)C4)(CC2)CC3)cc1 [Compound 69]"
measured_metric = "pIC50"
endpoint_value = "> 7.70"

[[record]]
compound = "NC/C(=C\\F)COc1ccc(S(=O)(=O)Cc2cnc(N3CCCC3)nc2)cc1 [compound 103]"
measured_metric = "pIC50"
endpoint_value = "7.00 to 7.70"

[[record]]
compound = "CC1(C(=O)N2CCN(CS(=O)(=O)c3ccc(OC/C(=C/F)CN)cc3)C(=O)C2)CCC1 [compound 134]"
measured_metric = "pIC50"
endpoint_value = "6.30 to 7.00"

[[record]]
compound = "CC(C)(C)C(=O)N1CCC(CS(=O)(=O)c2ccc(OC/C(=C/F)CN)cc2)CC1 [compound 41]"
measured_metric = "pIC50"
endpoint_value = "7.00 to 7.70"

[[record]]
compound = "CC(C)C(=O)N1CCC(C)(COCS(=O)(=O)c2ccc(OC/C(=C/F)CN)cc2)CC1 [compound 33]"
measured_metric = "pIC50"
endpoint_value = "7.00 to 7.70"

[[record]]
compound = "NC/C(=C\\F)COc1ccc(S(=O)(=O)Cn2ccccc2=O)cc1 [compound 121]"
measured_metric = "pIC50"
endpoint_value = "7.00 to 7.70"

[[record]]
compound = "CN(C)C(=O)C12CCC(CS(=O)(=O)c3ccc(OC/C(=C/F)CN)cc3)(CC1)CC2 [compound 62]"
measured_metric = "pIC50"
endpoint_value = "7.00 to 7.70"


Please report pIC50 for every entry that follows.
1. COC1(CS(=O)(=O)c2ccc(OC/C(=C/F)CN)cc2)CCOCC1 [compound 11]
2. NC/C(=C\F)COc1ccc(S(=O)(=O)CC2CCOCC2)c(Cl)c1 [compound 8]
3. NC/C(=C\F)COc1ccc(S(=O)(=O)CN2CCC3(CCCC3)C2=O)cc1 [Compound 127]
4. CC(C)(C)C(=O)NC12CCC(CS(=O)(=O)c3ccc(OC/C(=C\F)CN)cc3)(CC1)CC2 [Compound 142]
5. CC(C)(C)C(=O)NC12CCC(CS(=O)(=O)c3ccc(OC/C(=C/F)CN)cc3)(CC1)CC2 [Compound 90]
6. NC/C(=C\F)COc1ccc(S(=O)(=O)CC23CCC(C(=O)N4CC(F)(F)C4)(CC2)CC3)cc1 [Compound 72]

Ans.
7.00 to 7.70
7.00 to 7.70
6.30 to 7.00
> 7.70
> 7.70
> 7.70

Report pIC50 for each item below.
1. CN(C(=O)C12CCC(CS(=O)(=O)c3ccc(OC/C(=C/F)CN)cc3)(CC1)CC2)C1CC1 [Compound 73]
2. CC1(C)CCN(CS(=O)(=O)c2ccc(OC/C(=C/F)CN)cc2)C1=O [Compound 125]

Ans.
["7.00 to 7.70", "7.00 to 7.70"]
